GI50 reference
Tested on: ACHN renal
Test: NCI tumour cell line growth inhibition, 48 h

compound	measurement label	result
C[C@]12CC[C@@H]3c4ccc(OC(=O)N(CCCl)CCCl)cc4CC[C@H]3[C@@H]1CC[C@@H]2OP(=O)(O)O	GI50	62.6 µM

Request: Retrieve GI50 on ACHN renal; query CC(=O)N[C@@H](Cc1ccc(OP(=O)(O)O)cc1)C(=O)N[C@H]1CCC(=O)N2CCC[C@@H](C(=O)NC3CCc4ccccc43)N2C1=O (some centres undefined)
Response: > 25 µM

Request: Retrieve GI50 on ACHN renal; query Cc1c(C(=O)c2ccccc2)[n+](=O)c2cc(F)c(F)cc2n1[O-]
Response: 1.66 µM

Request: Retrieve GI50 on ACHN renal; query CCC(C)C1NC(=O)C(NC(=O)C(CC(C)C)N(C)C(=O)[C@@H]2CC(O)CN2C(=O)[C@H](C)O)C(C)OC(=O)[C@H](Cc2ccc(OC)cc2)N(C)C(=O)[C@@H]2CCCN2C(=O)[C@H](CC(C)C)NC(=O)C(C)C(=O)[C@H](C(C)C)OC(=O)CC1O (some centres undefined)
Response: 0.131 µM

###

TGI reference
Test system: SK-OV-3 ovarian
Assay: NCI tumour cell line growth inhibition, 48 h

In the examples that follow, each entry is paired with its recorded TGI.
molecule	TGI
CCCCCCCCCCCCc1ccsc1-c1ccc(-c2ccc(-c3sccc3CCCCCCCCCCCC)s2)s1	> 100 µM
CC(=O)N[C@@H](Cc1ccc(OP(=O)(O)O)cc1)C(=O)N[C@H]1CCC(=O)N2CCC[C@@H](C(=O)NC3CCc4ccccc43)N2C1=O (stereo partly specified)	> 25 µM
O=CC1OC(=O)c2cc(O)c(O)c(O)c2-c2c(cc(O)c(O)c2O)C(=O)OC1C1OC(=O)c2cc(O)c(O)c(O)c2-c2c(O)c(O)c3oc(=O)c4c(c(O)c(O)c5oc(=O)c2c3c54)-c2c(cc(O)c(O)c2O)C(=O)OCC1O (stereo unspecified)	> 100 µM
S=C(S)NCCN1CCNCC1	> 100 µM
Cn1c(=O)c2c(=O)cc(N)[nH]c2n(C)c1=O	> 100 µM
CCN(CC)C(=O)CC12CCCCC1=Nc1ccccc12 (stereo unspecified)	> 100 µM
COC(=O)C1=CCC2c3[nH]c4ccccc4c3CCN2C1 (stereo unspecified)	> 354 µM
COC(=O)C1Cc2cc3c(cc2C1)CCC3	> 100 µM

Request: Retrieve TGI on SK-OV-3 ovarian; query COC(=O)[C@H](Cc1ccccc1)NC(=O)N(CCNC(=O)OC(C)(C)C)c1ccccc1
Response: > 100 µM

Request: Retrieve TGI on SK-OV-3 ovarian; query C[C@]12CCc3nn(-c4ccccc4)nc3C1CC[C@@H]1C2CC[C@]2(C)C(=O)CCC12 (stereo partly specified)
Response: > 100 µM

Request: Retrieve TGI on SK-OV-3 ovarian; query O=C(Cc1nc2ccccc2o1)C(=O)Nc1ccc(Cl)cc1Cl
Response: > 100 µM

###

Tested on: 786-0 renal
Experiment: NCI tumour cell line growth inhibition, 48 h
TGI vs 20 µM: at or above is Criterion met, below is Criterion not met.

Look over these answered cases.
compound	target or test system	label class
COc1ccc(/C=C/C(=O)/C=C(O)/C=C/c2ccc(OC)c(OC)c2)cc1OC	786-0 renal	Criterion met
Cn1c(=O)n(C2(C)CSC2)c2ccccc21	786-0 renal	Criterion met
CC1(C)C(CC(=O)O)CCCC1CC(=O)O (centres undefined)	786-0 renal	Criterion met
CC1(C)N([O-])[N+](=O)C1(C)O (centres undefined)	786-0 renal	Criterion met
CCCCCCCCCCCCCCCC(=O)OC1C(O)C(O)C(O)C(O)C12CO2 (centres undefined)	786-0 renal	Criterion met
N#Cc1cccc(C2C(=O)c3ccc(C(=O)c4ccc5c(c4)C(=O)N(c4ccc(Oc6ccc(N7C(=O)c8ccc(C(=O)c9ccc%10c(c9)C(=O)N(c9cccc(C#N)c9)C%10=O)cc8C7=O)cc6)cc4)C5=O)cc3C2=O)c1 (centres undefined)	786-0 renal	Criterion met
OCC1OC(n2cnc3c(Cl)nc(Nc4ccc(Cl)c(Cl)c4)nc32)CC1O (centres undefined)	786-0 renal	Criterion not met
Nc1c(C(=O)Nc2cccc(C(F)(F)F)c2)sc2nc3c(cc12)CCCCCC3	786-0 renal	Criterion not met

Request: Evaluate O=C(/C=C/C=C/c1ccc2c(c1)OCO2)N/N=C\c1ccc(O)cc1O : TGI at minimum 20 µM?
Response: Criterion not met

Request: Evaluate CCc1ccccc1NC(=O)C(=O)C1C(=O)N(c2ccccc2)N=C1N (centres undefined) : TGI at minimum 20 µM?
Response: Criterion met

Request: Evaluate CC[C@@H](C)/C=C(C)/C=C/C(=O)c1c(O)c(-c2ccc(O)cc2)cn(OC2CC(=O)CCC(C)OC(=O)CC2O)c1=O (some centres undefined) : TGI at minimum 20 µM?
Response: Criterion not met

Request: Evaluate C#CCn1c(=O)ccn(/C(=C/C(=O)OCC)C(=O)OCC)c1=O : TGI at minimum 20 µM?
Response: Criterion met

Request: Evaluate O=C(CCN1CCCN(c2cnc3ccccc3n2)CC1)c1csc2ccccc12 : TGI at minimum 20 µM?
Response: Criterion met

Request: Evaluate COC(=O)C1=CC(=O)[C@@H]2CCCC[C@H]12 : TGI at minimum 20 µM?
Response: Criterion met
